- Assay Details: Approximate solubility test of Compound I at room temperature / 50° C. in different solvents
- Assay type: physicochemical
- Assay Context: organic solvent or mixture, thermodynamic from solid; EA, 20-25° C.; read-out: Solubility (mg/mL) 20-25° C.
Metric Name: solubility

Challenge: Requested field: solubility. Item: Cn1cnc(C2CC3CC(O)(c4cc(OCC(C)(C)O)nn4C)CC3C2)c1C(=O)Nc1ccc(F)c(Cl)c1 (stereo not shown)
Response given: < 3.3 mg/mL

###

- Assay Details: Approximate solubility of Compound I, Type 1 at RT in twenty solvents (stepwise solvent addition)
- Assay type: physicochemical
- Assay Context: organic solvent or mixture, thermodynamic from solid, Acetone, read-out: Approximate Solubility (mg/mL) at RT
- Method: The solubility of Compound I, Type 1 (6036531-01-A) was estimated at RT in twenty different solvents. Approximately 2 mg solids were added into a 3-mL glass vial. Solvents in Table 39 were then added stepwise (50 μL per step) into the vials until the solids were dissolved or a total volume of 2 mL was reached.
Metric Name: solubility

Challenge: Requested field: solubility. Item: Cn1cnc([C@@H]2C[C@@H]3C[C@@](O)(c4cc(OCC(C)(C)O)nn4C)C[C@@H]3C2)c1C(=O)Nc1ccc(F)c(Cl)c1 [Type 1]
Response given: 2.3 to 7.7 mg/mL

###

- Assay Details: Approximate solubility of Compound I, Type 1 at RT in twenty solvents (stepwise solvent addition)
- Type: physicochemical
- Assay Context: organic solvent or mixture, thermodynamic from solid, THF, read-out: Approximate Solubility (mg/mL) at RT
- Experimental: The solubility of Compound I, Type 1 (6036531-01-A) was estimated at RT in twenty different solvents. Approximately 2 mg solids were added into a 3-mL glass vial. Solvents in Table 39 were then added stepwise (50 μL per step) into the vials until the solids were dissolved or a total volume of 2 mL was reached.
Metric Name: solubility

Challenge: Requested field: solubility. Item: Cn1cnc([C@@H]2C[C@@H]3C[C@@](O)(c4cc(OCC(C)(C)O)nn4C)C[C@@H]3C2)c1C(=O)Nc1ccc(F)c(Cl)c1
Response given: 21 to 42 mg/mL

###

- Assay Details: Approximate solubility test of Compound I at room temperature / 50° C. in different solvents
- Format: physicochemical
- Assay Context: organic solvent or mixture, thermodynamic from solid; ACN, 50° C.; read-out: Solubility (mg/mL) 50° C.
Metric Name: solubility

Challenge: Requested field: solubility. Item: Cn1cnc(C2CC3CC(O)(c4cc(OCC(C)(C)O)nn4C)CC3C2)c1C(=O)Nc1ccc(F)c(Cl)c1 (stereo not shown)
Response given: < 3.3 mg/mL

###

- Assay Details: Approximate solubility test of Compound I at room temperature / 50° C. in different solvents
- Format: physicochemical
- Assay Context: organic solvent or mixture, thermodynamic from solid; THF, 50° C.; read-out: Solubility (mg/mL) 50° C.
Metric Name: solubility

Challenge: Requested field: solubility. Item: Cn1cnc(C2CC3CC(O)(c4cc(OCC(C)(C)O)nn4C)CC3C2)c1C(=O)Nc1ccc(F)c(Cl)c1 (stereo not shown)
Response given: 18.1 to 18.5 mg/mL

###

- Assay Details: Approximate solubility test of Compound I at room temperature / 50° C. in different solvents
- Type: physicochemical
- Assay Context: organic solvent or mixture, thermodynamic from solid; DCM, 20-25° C.; read-out: Solubility (mg/mL) 20-25° C.
- Protocol: The specific steps are as follows: Charge about 5 mg of Compound I into a clean glass vial, […] visible particles (add up to 1.5 mL of solvent), record the amount of solvent at last for the calculation of solubility.
Metric Name: solubility

Challenge: Requested field: solubility. Item: Cn1cnc(C2CC3CC(O)(c4cc(OCC(C)(C)O)nn4C)CC3C2)c1C(=O)Nc1ccc(F)c(Cl)c1 (stereo not shown)
Response given: < 3.3 mg/mL

###

- Assay Details: Approximate solubility test of Compound I at room temperature / 50° C. in different solvents
- Assay type: physicochemical
- Assay Context: water, thermodynamic from solid; H2O, 50° C.; read-out: Solubility (mg/mL) 50° C.
Metric Name: solubility

Challenge: Requested field: solubility. Item: Cn1cnc(C2CC3CC(O)(c4cc(OCC(C)(C)O)nn4C)CC3C2)c1C(=O)Nc1ccc(F)c(Cl)c1 (stereo not shown)
Response given: < 3.3 mg/mL

###

- Assay Details: Approximate solubility test of Compound I at room temperature / 50° C. in different solvents
- Type: physicochemical
- Assay Context: organic solvent or mixture, thermodynamic from solid; ACN, 20-25° C.; read-out: Solubility (mg/mL) 20-25° C.
Metric Name: solubility

Challenge: Requested field: solubility. Item: Cn1cnc(C2CC3CC(O)(c4cc(OCC(C)(C)O)nn4C)CC3C2)c1C(=O)Nc1ccc(F)c(Cl)c1 (stereo not shown) [Compound I]
Response given: < 3.3 mg/mL

###

- Assay Details: Approximate solubility test of Compound I at room temperature / 50° C. in different solvents
- Assay type: physicochemical
- Assay Context: organic solvent or mixture, thermodynamic from solid; THF, 20-25° C.; read-out: Solubility (mg/mL) 20-25° C.
Metric Name: solubility

Challenge: Requested field: solubility. Item: Cn1cnc(C2CC3CC(O)(c4cc(OCC(C)(C)O)nn4C)CC3C2)c1C(=O)Nc1ccc(F)c(Cl)c1 (stereo not shown)
Response given: 12.5 to 12.6 mg/mL

###

- Assay Details: Approximate solubility test of Compound I at room temperature / 50° C. in different solvents
- Type: physicochemical
- Assay Context: organic solvent or mixture, thermodynamic from solid; EtOH, 20-25° C.; read-out: Solubility (mg/mL) 20-25° C.
Metric Name: solubility

Challenge: Requested field: solubility. Item: Cn1cnc(C2CC3CC(O)(c4cc(OCC(C)(C)O)nn4C)CC3C2)c1C(=O)Nc1ccc(F)c(Cl)c1 (stereo not shown)
Response given: 8 to 8.3 mg/mL

###

- Assay Details: Approximate solubility test of Compound I at room temperature / 50° C. in different solvents
- Assay type: physicochemical
- Assay Context: organic solvent or mixture, thermodynamic from solid; MeOH, 50° C.; read-out: Solubility (mg/mL) 50° C.
Metric Name: solubility

Challenge: Requested field: solubility. Item: Cn1cnc(C2CC3CC(O)(c4cc(OCC(C)(C)O)nn4C)CC3C2)c1C(=O)Nc1ccc(F)c(Cl)c1 (stereo not shown)
Response given: 74.1 to 76.9 mg/mL

Values compiled from patent US20250250257A1.
